- measuredOn: Serine/threonine-protein kinase pim-1 (Homo sapiens, UniProt P11309)
- Sequence (P11309 whole entry): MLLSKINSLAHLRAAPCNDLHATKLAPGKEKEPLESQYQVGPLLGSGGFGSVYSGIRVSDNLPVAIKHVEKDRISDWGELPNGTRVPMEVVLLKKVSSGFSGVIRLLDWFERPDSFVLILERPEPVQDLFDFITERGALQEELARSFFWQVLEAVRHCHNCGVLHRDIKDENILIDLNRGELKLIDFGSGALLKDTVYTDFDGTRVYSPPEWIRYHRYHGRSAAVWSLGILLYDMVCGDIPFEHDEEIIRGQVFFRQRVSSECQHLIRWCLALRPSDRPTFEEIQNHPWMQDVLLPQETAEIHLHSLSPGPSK
- methodDescription: Inhibition of recombinant PIM1 (unknown origin) assessed as incorporation of [gamma-33P]-ATP into substrate by radiometric assay
Recorded IC50, one value per entry.
Answer in µM, number only, no unit symbol.

COC(=O)c1cc(O)c(O)c(C[C@]2(C)[C@@H](C)CC[C@@]3(C)C(C)=CCC[C@@H]23)c1 ... 20.3

Alright, here's another molecule for you.
Record CC1=CCC[C@H]2[C@](C)(CC3=C(O)C(=O)C=C(NCCC(C)C)C3=O)[C@@H](C)CC[C@@]12C / Serine/threonine-protein kinase pim-1 (Homo sapiens, UniProt P11309), IC50 recorded as 62.6

---

Recorded pIC50 for the following compounds
- measuredOn: Vascular endothelial growth factor receptor 2 (Homo sapiens, UniProt P35968)
- Sequence (P35968 whole entry): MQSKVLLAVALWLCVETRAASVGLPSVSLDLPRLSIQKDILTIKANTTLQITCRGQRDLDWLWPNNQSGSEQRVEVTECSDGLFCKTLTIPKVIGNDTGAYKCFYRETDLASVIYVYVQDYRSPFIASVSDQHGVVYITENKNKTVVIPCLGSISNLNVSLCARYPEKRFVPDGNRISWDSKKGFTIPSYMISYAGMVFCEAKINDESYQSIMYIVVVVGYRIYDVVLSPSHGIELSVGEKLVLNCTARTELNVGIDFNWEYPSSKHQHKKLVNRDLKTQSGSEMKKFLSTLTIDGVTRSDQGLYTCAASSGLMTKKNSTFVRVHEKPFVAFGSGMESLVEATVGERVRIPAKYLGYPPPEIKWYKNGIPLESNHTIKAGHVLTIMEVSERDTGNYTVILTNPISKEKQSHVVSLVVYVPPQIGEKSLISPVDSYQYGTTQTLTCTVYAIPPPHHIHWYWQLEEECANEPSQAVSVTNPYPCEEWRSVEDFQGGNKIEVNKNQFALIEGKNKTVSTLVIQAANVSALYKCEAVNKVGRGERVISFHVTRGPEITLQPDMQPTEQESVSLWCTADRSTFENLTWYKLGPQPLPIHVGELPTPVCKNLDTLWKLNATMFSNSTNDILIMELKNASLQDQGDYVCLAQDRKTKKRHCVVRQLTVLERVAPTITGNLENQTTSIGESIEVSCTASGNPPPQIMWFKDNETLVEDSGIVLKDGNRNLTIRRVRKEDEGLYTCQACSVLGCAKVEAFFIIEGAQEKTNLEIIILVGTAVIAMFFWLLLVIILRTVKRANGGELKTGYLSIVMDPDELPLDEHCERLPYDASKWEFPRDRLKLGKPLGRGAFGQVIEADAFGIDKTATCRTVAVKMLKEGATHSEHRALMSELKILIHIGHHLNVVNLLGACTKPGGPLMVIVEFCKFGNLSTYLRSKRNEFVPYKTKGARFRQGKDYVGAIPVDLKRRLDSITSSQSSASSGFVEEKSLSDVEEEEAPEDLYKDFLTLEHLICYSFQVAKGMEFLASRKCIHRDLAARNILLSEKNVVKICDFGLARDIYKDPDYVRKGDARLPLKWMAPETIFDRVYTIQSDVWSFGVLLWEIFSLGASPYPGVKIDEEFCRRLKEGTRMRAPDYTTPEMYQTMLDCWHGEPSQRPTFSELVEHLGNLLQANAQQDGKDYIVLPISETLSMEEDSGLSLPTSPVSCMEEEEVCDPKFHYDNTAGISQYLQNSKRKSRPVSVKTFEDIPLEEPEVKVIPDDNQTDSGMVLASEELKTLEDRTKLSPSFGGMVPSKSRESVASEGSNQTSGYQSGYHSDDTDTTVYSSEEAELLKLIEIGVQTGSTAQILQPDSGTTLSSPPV
- methodDescription: Inhibition of recombinant VEGFR2 (unknown origin) using poly(Glu,Tyr)4:1 as substrate assessed as incorporation of [gamma-33P]-ATP into substrate by radiometric assay
FYI, pIC50 means -log10 of a concentration in mol per litre.

Below, each entry is followed by its recorded pIC50 result.
CC1=CCC[C@H]2[C@](C)(CC3=C(O)C(=O)C=C(NCCC(C)C)C3=O)[C@@H](C)CC[C@@]12C ... 5.65
COc1cc2nc(C)oc2c(C[C@]2(C)[C@@H](C)CC[C@@]3(C)C(C)=CCC[C@@H]23)c1O ... 5.44

The compound COC(=O)c1cc(O)c(O)c(C[C@]2(C)[C@@H](C)CC[C@@]3(C)C(C)=CCC[C@@H]23)c1 showed pIC50 equal to 5.32

---

In this section we review reported IC50 values for a set of compounds.
- measuredOn: Focal adhesion kinase 1 (Homo sapiens)
- Sequence (Q05397 whole entry): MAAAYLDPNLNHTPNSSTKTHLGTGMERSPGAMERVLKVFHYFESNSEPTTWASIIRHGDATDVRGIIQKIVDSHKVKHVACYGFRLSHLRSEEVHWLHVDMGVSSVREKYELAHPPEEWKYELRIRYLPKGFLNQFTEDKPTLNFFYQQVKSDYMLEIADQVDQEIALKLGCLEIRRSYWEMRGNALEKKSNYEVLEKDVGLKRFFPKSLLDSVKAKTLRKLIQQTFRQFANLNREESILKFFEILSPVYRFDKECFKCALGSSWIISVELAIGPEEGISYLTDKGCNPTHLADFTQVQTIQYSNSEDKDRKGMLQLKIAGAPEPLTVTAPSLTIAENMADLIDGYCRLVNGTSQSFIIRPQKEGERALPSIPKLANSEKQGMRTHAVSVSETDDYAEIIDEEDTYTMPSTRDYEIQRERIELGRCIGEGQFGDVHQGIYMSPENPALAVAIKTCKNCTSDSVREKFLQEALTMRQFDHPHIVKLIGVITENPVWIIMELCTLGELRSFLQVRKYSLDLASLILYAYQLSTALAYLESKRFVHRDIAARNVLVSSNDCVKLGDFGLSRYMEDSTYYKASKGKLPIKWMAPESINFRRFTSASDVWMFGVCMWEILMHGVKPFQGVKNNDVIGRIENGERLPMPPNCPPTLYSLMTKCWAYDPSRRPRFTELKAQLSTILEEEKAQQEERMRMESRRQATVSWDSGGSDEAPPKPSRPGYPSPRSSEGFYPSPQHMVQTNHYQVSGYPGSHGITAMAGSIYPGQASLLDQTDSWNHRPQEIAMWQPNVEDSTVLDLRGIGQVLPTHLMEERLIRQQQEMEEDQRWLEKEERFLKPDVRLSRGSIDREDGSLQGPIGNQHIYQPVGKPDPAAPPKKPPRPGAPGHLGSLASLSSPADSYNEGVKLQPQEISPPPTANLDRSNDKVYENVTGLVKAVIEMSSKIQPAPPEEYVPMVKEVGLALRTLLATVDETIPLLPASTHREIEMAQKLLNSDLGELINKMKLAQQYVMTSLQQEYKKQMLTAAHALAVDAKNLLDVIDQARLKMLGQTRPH
- methodDescription: Inhibition of recombinant FAK (unknown origin) assessed as incorporation of [gamma-33P]-ATP into substrate by radiometric assay
Just the number please, in µM, no unit attached.

Example entries and their recorded answers appear below.
COC(=O)c1cc(O)c(O)c(C[C@]2(C)[C@@H](C)CC[C@@]3(C)C(C)=CCC[C@@H]23)c1 ... 4.56
COc1cc2nc(C)oc2c(C[C@]2(C)[C@@H](C)CC[C@@]3(C)C(C)=CCC[C@@H]23)c1O ... 7.78

Would you kindly look at the next entry?
Value (IC50, Focal adhesion kinase 1 (Homo sapiens)) for record CC1=CCC[C@H]2[C@](C)(CC3=C(O)C(=O)C=C(NCCC(C)C)C3=O)[C@@H](C)CC[C@@]12C = 3.03

---

- measuredOn: RAC-alpha serine/threonine-protein kinase (Homo sapiens, UniProt P31749)
- Sequence (P31749 whole entry): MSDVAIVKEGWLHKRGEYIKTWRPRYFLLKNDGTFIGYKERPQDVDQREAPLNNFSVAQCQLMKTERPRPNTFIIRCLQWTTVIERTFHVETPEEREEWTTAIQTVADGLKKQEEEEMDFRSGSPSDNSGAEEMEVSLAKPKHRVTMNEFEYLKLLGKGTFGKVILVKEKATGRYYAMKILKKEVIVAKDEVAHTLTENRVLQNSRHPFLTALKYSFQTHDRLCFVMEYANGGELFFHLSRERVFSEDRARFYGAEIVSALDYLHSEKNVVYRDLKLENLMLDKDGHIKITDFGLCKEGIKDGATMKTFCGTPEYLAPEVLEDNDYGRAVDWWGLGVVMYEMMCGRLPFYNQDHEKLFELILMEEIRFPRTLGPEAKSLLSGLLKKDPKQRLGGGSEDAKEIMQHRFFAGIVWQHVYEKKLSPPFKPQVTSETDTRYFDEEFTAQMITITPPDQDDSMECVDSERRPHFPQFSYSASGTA
- methodDescription: Inhibition of recombinant AKT1 (unknown origin) using GSK3 (14 to 27) as substrate assessed as incorporation of [gamma-33P]-ATP into substrate by radiometric assay
testReadout: pIC50
Interpret pIC50 as the negative base-10 log of the concentration measured in mol/L.

CC1=CCC[C@H]2[C@](C)(CC3=C(O)C(=O)C=C(NCCC(C)C)C3=O)[C@@H](C)CC[C@@]12C ... 4.14

Please find the next molecule below.
What the record says about COC(=O)c1cc(O)c(O)c(C[C@]2(C)[C@@H](C)CC[C@@]3(C)C(C)=CCC[C@@H]23)c1 : pIC50 is 4.32

---

- measuredOn: Dual specificity mitogen-activated protein kinase kinase 1 (Homo sapiens, UniProt Q02750)
- Sequence (Q02750 whole entry): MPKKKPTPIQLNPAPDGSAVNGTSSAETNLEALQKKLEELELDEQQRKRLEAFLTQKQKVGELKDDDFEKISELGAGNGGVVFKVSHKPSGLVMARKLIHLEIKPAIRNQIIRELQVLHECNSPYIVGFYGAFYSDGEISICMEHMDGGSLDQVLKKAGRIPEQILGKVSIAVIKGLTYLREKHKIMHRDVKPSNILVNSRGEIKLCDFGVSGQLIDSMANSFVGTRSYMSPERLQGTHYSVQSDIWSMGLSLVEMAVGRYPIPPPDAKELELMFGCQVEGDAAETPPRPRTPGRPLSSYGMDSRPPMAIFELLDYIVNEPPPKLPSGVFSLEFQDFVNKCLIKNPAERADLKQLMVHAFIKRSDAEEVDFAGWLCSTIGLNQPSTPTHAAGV
- methodDescription: Inhibition of wild type MEK1 (unknown origin) assessed as incorporation of [gamma-33P]-ATP into substrate by radiometric assay
pIC50: −log10 of the molar value.
Reported pIC50 values follow for various compounds

Value of measured pIC50 for the entry COC(=O)c1cc(O)c(O)c(C[C@]2(C)[C@@H](C)CC[C@@]3(C)C(C)=CCC[C@@H]23)c1 : < 4.00

// recorded pIC50 for COc1cc2nc(C)oc2c(C[C@]2(C)[C@@H](C)CC[C@@]3(C)C(C)=CCC[C@@H]23)c1O : < 4.00

# compound CC1=CCC[C@H]2[C@](C)(CC3=C(O)C(=O)C=C(NCCC(C)C)C3=O)[C@@H](C)CC[C@@]12C ; its pIC50 = < 4.00

---

- measuredOn: Tyrosine-protein kinase receptor UFO (Homo sapiens, UniProt P30530)
- Sequence (P30530 whole entry): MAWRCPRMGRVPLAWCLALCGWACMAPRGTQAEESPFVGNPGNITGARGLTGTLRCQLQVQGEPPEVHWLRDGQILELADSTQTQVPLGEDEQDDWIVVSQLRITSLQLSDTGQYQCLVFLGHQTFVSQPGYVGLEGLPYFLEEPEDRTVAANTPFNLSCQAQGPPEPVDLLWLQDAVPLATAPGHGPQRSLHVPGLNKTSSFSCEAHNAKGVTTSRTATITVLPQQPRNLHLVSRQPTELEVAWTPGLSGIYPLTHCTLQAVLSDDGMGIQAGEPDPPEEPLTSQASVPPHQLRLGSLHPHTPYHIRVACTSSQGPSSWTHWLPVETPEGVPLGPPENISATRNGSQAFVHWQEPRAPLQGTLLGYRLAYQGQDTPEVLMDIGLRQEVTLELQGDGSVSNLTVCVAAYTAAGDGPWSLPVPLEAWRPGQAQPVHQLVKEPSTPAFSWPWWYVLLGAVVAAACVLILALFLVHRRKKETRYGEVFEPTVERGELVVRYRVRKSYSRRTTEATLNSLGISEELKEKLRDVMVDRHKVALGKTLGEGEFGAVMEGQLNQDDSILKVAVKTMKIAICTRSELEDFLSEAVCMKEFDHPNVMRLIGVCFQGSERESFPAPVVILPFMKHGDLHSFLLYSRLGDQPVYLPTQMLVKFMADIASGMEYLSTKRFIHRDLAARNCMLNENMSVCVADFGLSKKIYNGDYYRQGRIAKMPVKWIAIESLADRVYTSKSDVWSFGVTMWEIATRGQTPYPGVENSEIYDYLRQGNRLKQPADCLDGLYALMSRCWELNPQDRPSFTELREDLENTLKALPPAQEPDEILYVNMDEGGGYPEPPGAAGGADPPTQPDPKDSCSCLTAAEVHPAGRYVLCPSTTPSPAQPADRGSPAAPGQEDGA
- methodDescription: Inhibition of recombinant AXL (unknown origin) assessed as incorporation of [gamma-33P]-ATP into substrate by radiometric assay
testReadout: pIC50
Lab note — pIC50 values are minus log10 of concentrations in M.

COC(=O)c1cc(O)c(O)c(C[C@]2(C)[C@@H](C)CC[C@@]3(C)C(C)=CCC[C@@H]23)c1 ... 4.88

Value of measured pIC50 for the entry COc1cc2nc(C)oc2c(C[C@]2(C)[C@@H](C)CC[C@@]3(C)C(C)=CCC[C@@H]23)c1O : 4.83

---

Listing: pIC50 of selected compounds
- measuredOn: Aurora kinase B (Homo sapiens, UniProt Q96GD4)
- Sequence (Q96GD4 whole entry): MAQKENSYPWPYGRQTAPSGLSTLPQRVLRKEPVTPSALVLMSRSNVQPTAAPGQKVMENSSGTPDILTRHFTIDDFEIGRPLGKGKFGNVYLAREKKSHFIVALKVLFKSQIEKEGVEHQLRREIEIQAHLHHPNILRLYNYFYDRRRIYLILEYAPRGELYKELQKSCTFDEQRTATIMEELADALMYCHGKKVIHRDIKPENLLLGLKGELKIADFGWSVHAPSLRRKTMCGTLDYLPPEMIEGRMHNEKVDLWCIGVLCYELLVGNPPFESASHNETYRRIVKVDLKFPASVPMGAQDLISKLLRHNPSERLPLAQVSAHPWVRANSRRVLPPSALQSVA
- methodDescription: Inhibition of recombinant aurora kinase B (unknown origin) using tetra(LRRWSLG) as substrate assessed as incorporation of [gamma-33P]-ATP into substrate by radiometric assay
Would you please state pIC50, meaning minus log10 of the concentration in mol/L, as a bare number?

CC1=CCC[C@H]2[C@](C)(CC3=C(O)C(=O)C=C(NCCC(C)C)C3=O)[C@@H](C)CC[C@@]12C ... 4.21

The compound identified as COC(=O)c1cc(O)c(O)c(C[C@]2(C)[C@@H](C)CC[C@@]3(C)C(C)=CCC[C@@H]23)c1 registered its pIC50 at 5.41

---

- Test system: L5178Y
- methodDescription: Cytotoxicity against mouse L5178Y cells assessed as growth inhibition by MTT assay
- Assay type: functional, cell-based
testReadout: pIC50
Note on pIC50: it is the negative log10 of concentration, concentration in mol/L.

CC1=CCC[C@H]2[C@](C)(CC3=C(O)C(=O)C=C(NCCc4c[nH]c5ccccc45)C3=O)[C@@H](C)CC[C@@]12C ... 5.43

Record CC1=CCC[C@H]2[C@](C)(CC3=C(O)C(=O)C=C(NCCC(C)C)C3=O)[C@@H](C)CC[C@@]12C . Reported pIC50: 5.89

Recorded pIC50 (molecule CC1=CCC[C@H]2[C@](C)(CC3=C(O)C(=O)C=C(NCCc4ccc(O)cc4)C3=O)[C@@H](C)CC[C@@]12C ): 5.77

# pIC50 of CC1=CCC[C@H]2[C@](C)(CC3=C(O)C(=O)C=C(NCCc4ccccc4)C3=O)[C@@H](C)CC[C@@]12C = 5.96

pIC50 reading for CSCCCNC1=CC(=O)C(O)=C(C[C@]2(C)[C@@H](C)CC[C@@]3(C)C(C)=CCC[C@@H]23)C1=O : 5.74

---

- measuredOn: Vascular endothelial growth factor receptor 2 (Homo sapiens)
- methodDescription: Inhibition of recombinant VEGFR2 (unknown origin) using poly(Glu,Tyr)4:1 as substrate assessed as incorporation of [gamma-33P]-ATP into substrate at 10 uM by radiometric assay
Activity calls are given as the source filed them. No cut-off for these calls is given here.
testReadout: inhibition

CC1=CCC[C@H]2[C@](C)(CC3=C(O)C(=O)C=C(NCCc4ccccc4)C3=O)[C@@H](C)CC[C@@]12C ... Active
CSCCCNC1=CC(=O)C(O)=C(C[C@]2(C)[C@@H](C)CC[C@@]3(C)C(C)=CCC[C@@H]23)C1=O ... Active
CC1=CCC[C@H]2[C@](C)(CC3=C(O)C(=O)C=C(NCCc4ccc(O)cc4)C3=O)[C@@H](C)CC[C@@]12C ... Active
CC1=CCC[C@H]2[C@](C)(CC3=C(O)C(=O)C=C(NCCc4c[nH]c5ccccc45)C3=O)[C@@H](C)CC[C@@]12C ... Active
